System: IGROV1 ovarian
experimental protocol: NCI-60 one-dose screen, 48 h (100 = growth as untreated, 0 = no growth, -100 = all killed)
study conditions: 10 µM unless noted
This is part of a sample that, as a whole, favours compounds with a hit. Of some 83,000 tested, about 20% had one in any assay.
measure: growth (%)
One number for each entry, in %.

Worked cases, answers included:
- compound: "COc1cc(/C=N/NC(=O)c2ccccc2Nc2cccc(C(F)(F)F)c2)ccc1O"
  measure: "growth"
  reading unit: "%"
  result: 111
- compound: "O=C1Nc2cc(-c3ccncc3)ccc2/C1=C/c1ccc[nH]1"
  measure: "growth"
  reading unit: "%"
  result: 80.8
- compound: "Cc1c2c(cc[n+]1Cc1ccccc1)c1ccc(OCC3CCCCC3)cc1n2CC1CCCCC1"
  measure: "growth"
  reading unit: "%"
  result: -70.6
- compound: "N#Cc1c(Nc2ccccc2)nn2cc(-c3nc4ccccc4s3)c(N)nc12"
  measure: "growth"
  reading unit: "%"
  result: 65.5
- compound: "CCNNC(=O)[C@@H]1[C@H](c2cc(OC)c(OC)c(OC)c2)c2cc3c(cc2[C@H](O)[C@H]1CO)OCO3"
  measure: "growth"
  reading unit: "%"
  result: 20.8
- compound: "O=C1/C(=C/c2ccc(O)cc2)COc2ccc(-c3ccccc3)cc21"
  measure: "growth"
  reading unit: "%"
  result: 51.6
- compound: "CO[C@@H]1[C@H](N(C)C(=O)c2ccccc2)C[C@@H]2O[C@]1(C)n1c3ccccc3c3c4c(c5c6ccccc6n2c5c31)C(=O)NC4=O"
  measure: "growth"
  reading unit: "%"
  result: 7.2
- compound: "C#CC(=O)Nc1cccc(Nc2nc3c(c(NCc4ccccc4)n2)CCCC3)c1"
  measure: "growth"
  reading unit: "%"
  result: -42.6
- compound: "COc1ccc(-c2c[nH]c(C(=O)O)c2-c2cc(OC)c3c(c2OC)OCO3)cc1"
  measure: "growth"
  reading unit: "%"
  result: 103
- compound: "C/C(=C(/c1ccccc1)c1ccc(OCC(O)CNCCN2CCOCC2)cc1)c1ccccc1 (stereo not given)"
  measure: "growth"
  reading unit: "%"
  result: 63.3

For each of the compounds below, state growth.
1. O=c1[nH]nc(-c2ccc(Cl)cc2)cc1Cc1cccc([N+](=O)[O-])c1
2. CN(C)C(=O)c1cc2cnc(Nc3ccc(-c4csc5c(=O)cc(N6CCOCC6)oc45)cc3)nc2n1C1CCCC1
3. COc1ccc(/C=C\c2nc3ccccc3s2)cc1OP(=O)(O)O
4. BrC(Br)(Br)c1cnc2ccccc2n1
5. Fc1ccc(C2CC(c3cccc(Nc4ccncc4)c3)=NN2c2cc(Cl)cc(Cl)c2)cc1 (stereo not given)
6. Clc1ccc2c(c1)c(-c1ccccc1)nc1nncn12

// result
82.4
-7.11
37.9
51.9
25.1
109

---

Tested on: RXF 393 renal
experimental protocol: NCI-60 one-dose screen, 48 h
study conditions: 10 µM unless noted
Compounds without any hit were thinned out: in the full panel of roughly 83,000, 20% have a hit. Activity calls are given as the source filed them. The calls were made as follows: active = growth percent below 10; inactive = the rest.
The reply should name one outcome from TRUE for active, FALSE for inactive

For orientation, consider the following solved cases.
- molecule: "CCCCCCCCOc1ccc(/C=N/Nc2cc(C)nc3ccc(Cl)cc23)cc1"
  label class: "TRUE"
- molecule: "Fc1ccc(-n2cc(COc3ncnc4sc5c(c34)CCCC5)nn2)cc1Cl"
  label class: "FALSE"
- molecule: "Cc1ccc(-c2csc(/N=C3\\C(=O)Nc4ccccc43)n2)cc1"
  label class: "TRUE"
- molecule: "Cc1cc(C(=O)Nc2ncnc3nc[nH]c23)no1"
  label class: "FALSE"

// query Each molecule tested received a call. Report the one for COC(=O)CCCCCCCCC1(C)C=CC(C(C)O)=CC1 (stereo not given) .
// result FALSE

// query Then this molecule: CC1(C)CC[C@]2(C(=O)NCC#CCN3CCOCC3)CC[C@]3(C)C(=CC[C@@H]4[C@@]5(C)Cc6c([nH]c7ccccc67)C(C)(C)[C@@H]5CC[C@]43C)[C@@H]2C1
// result FALSE

// query Then this molecule: O=C1CCC(NC(=S)Nc2ccccc2)N1 (stereo not given)
// result FALSE

// query Then this molecule: COc1ccc(OC)c(/C=C/[C@H]2O[C@@H](C)[C@H](O)[C@@H]2O)c1
// result FALSE

// query Then this molecule: CC(=O)OCCCCCNc1ccccc1
// result FALSE

// query Then this molecule: C=C1C(=O)O[C@H]2[C@H]1CC/C(CNC(=O)/C=C/c1ccccc1F)=C\CC[C@@]1(C)O[C@@H]21
// result TRUE
